# System: EMC-BAC-2
# ASSAY_SUMMARY: relative viability (nuclei count vs DMSO), 5 days (fraction); higher = more cells survive
# MEASUREMENT_SETUP: first compound 2.53 µM
We begin with a simple list: items and their reported relative viability.
Please give only the number in your answer, with no unit.

*Q* Provide measured relative viability on EMC-BAC-2 for Nc1cccc2c1CN(C1CCC(=O)NC1=O)C2=O (stereo unspecified) [Lenalidomide] + Cc1cc(Nc2cc(N3CCN(C)CC3)nc(Sc3ccc(NC(=O)C4CC4)cc3)n2)n[nH]1 [Tozasertib] (partner 0.1 µM) please.
*A* 0.298

*Q* Provide measured relative viability on EMC-BAC-2 for Nc1cccc2c1CN(C1CCC(=O)NC1=O)C2=O (stereo unspecified) [Lenalidomide] + CCNC(=O)c1noc(-c2cc(C(C)C)c(O)cc2O)c1-c1ccc(CN2CCOCC2)cc1 [Luminespib] (partner 0.01 µM) please.
*A* 1.23

*Q* Provide measured relative viability on EMC-BAC-2 for Nc1cccc2c1CN(C1CCC(=O)NC1=O)C2=O (stereo unspecified) [Lenalidomide] + CS(=O)(=O)CCNCc1ccc(-c2ccc3ncnc(Nc4ccc(OCc5cccc(F)c5)c(Cl)c4)c3c2)o1 [Lapatinib] (partner 2 µM) please.
*A* 0.905

*Q* Provide measured relative viability on EMC-BAC-2 for Nc1cccc2c1CN(C1CCC(=O)NC1=O)C2=O (stereo unspecified) [Lenalidomide] + N=C(N)NC(=N)NCCc1ccccc1 [Phenformin] (partner 250 µM) please.
*A* 0.598

*Q* Provide measured relative viability on EMC-BAC-2 for Nc1cccc2c1CN(C1CCC(=O)NC1=O)C2=O (stereo unspecified) [Lenalidomide] + Cc1nc(NC(=O)N2CCC[C@H]2C(N)=O)sc1-c1ccnc(C(C)(C)C(F)(F)F)c1 [Alpelisib] (partner 2 µM) please.
*A* 0.762

*Q* Provide measured relative viability on EMC-BAC-2 for Nc1cccc2c1CN(C1CCC(=O)NC1=O)C2=O (stereo unspecified) [Lenalidomide] + CC1(C)CCC(c2ccc(Cl)cc2)=C(CN2CCN(c3ccc(C(=O)NS(=O)(=O)c4ccc(N[C@H](CCN5CCOCC5)CSc5ccccc5)c(S(=O)(=O)C(F)(F)F)c4)cc3)CC2)C1 [Navitoclax] (partner 0.5 µM) please.
*A* 1.33

*Q* Provide measured relative viability on EMC-BAC-2 for Nc1cccc2c1CN(C1CCC(=O)NC1=O)C2=O (stereo unspecified) [Lenalidomide] + C[C@]1(O)C[C@@H](c2nc(-c3ccc4ccc(-c5ccccc5)nc4c3)c3c(N)nccn32)C1 [Linsitinib] (partner 1 µM) please.
*A* 0.823

----------
# System: SW 900
# ASSAY_SUMMARY: relative viability (nuclei count vs DMSO), 5 days (fraction); higher = more cells survive
# MEASUREMENT_SETUP: first compound 0.006325 µM
We begin with a simple list: items and their reported relative viability.
Please give only the number in your answer, with no unit.

Sample answers from the record:
[
  {
    "COMPOUND": "CCNC(=O)c1noc(-c2cc(C(C)C)c(O)cc2O)c1-c1ccc(CN2CCOCC2)cc1 [Luminespib] + O=C(CCCCCCC(=O)Nc1ccccc1)NO [Vorinostat] (partner 1 µM)",
    "TGT": "SW 900",
    "REPORTED_MEASUREMENT": 0.489
  },
  {
    "COMPOUND": "CCNC(=O)c1noc(-c2cc(C(C)C)c(O)cc2O)c1-c1ccc(CN2CCOCC2)cc1 [Luminespib] + COc1cccc2cc(-c3nc([C@H]4CC[C@H](C(=O)O)CC4)n4ncnc(N)c34)[nH]c12 [OSI-027] (partner 0.5 µM)",
    "TGT": "SW 900",
    "REPORTED_MEASUREMENT": 0.471
  },
  {
    "COMPOUND": "CCNC(=O)c1noc(-c2cc(C(C)C)c(O)cc2O)c1-c1ccc(CN2CCOCC2)cc1 [Luminespib] + O=C(c1cc(Cc2n[nH]c(=O)c3ccccc23)ccc1F)N1CCN(C(=O)C2CC2)CC1 [Olaparib] (partner 8 µM)",
    "TGT": "SW 900",
    "REPORTED_MEASUREMENT": 0.81
  },
  {
    "COMPOUND": "CCNC(=O)c1noc(-c2cc(C(C)C)c(O)cc2O)c1-c1ccc(CN2CCOCC2)cc1 [Luminespib] + Nc1ncn([C@H]2C[C@H](O)[C@@H](CO)O2)c(=O)n1 [Decitabine] (partner 2 µM)",
    "TGT": "SW 900",
    "REPORTED_MEASUREMENT": 0.472
  }
]

*Q* Answer with the recorded relative viability for the compound listed here: CCNC(=O)c1noc(-c2cc(C(C)C)c(O)cc2O)c1-c1ccc(CN2CCOCC2)cc1 [Luminespib] + CC(=O)Nc1cccc(-n2c(=O)n(C3CC3)c(=O)c3c(Nc4ccc(I)cc4F)n(C)c(=O)c(C)c32)c1 [Trametinib] (partner 0.02 µM)
*A* 0.919

----------
# System: EKVX
# ASSAY_SUMMARY: relative viability (nuclei count vs DMSO), 5 days (fraction); higher = more cells survive
# MEASUREMENT_SETUP: first compound 0.6325 µM
Decision: relative viability beneath 0.6 gives t; relative viability meeting or exceeding 0.6 gives f.

[
  {
    "COMPOUND": "CN1CCN(CCOc2cc(OC3CCOCC3)c3c(Nc4c(Cl)ccc5c4OCO5)ncnc3c2)CC1 [Saracatinib] + CC(C)C[C@H](NC(=O)[C@H](Cc1ccccc1)NC(=O)c1cnccn1)B(O)O [Bortezomib] (partner 0.002 µM)",
    "ASSIGNED_CLASS": "f"
  },
  {
    "COMPOUND": "CN1CCN(CCOc2cc(OC3CCOCC3)c3c(Nc4c(Cl)ccc5c4OCO5)ncnc3c2)CC1 [Saracatinib] + C[C@]1(O)C[C@@H](c2nc(-c3ccc4ccc(-c5ccccc5)nc4c3)c3c(N)nccn32)C1 [Linsitinib] (partner 1 µM)",
    "ASSIGNED_CLASS": "f"
  },
  {
    "COMPOUND": "Cc1csc(=NC2CCCCC2)n1/N=C/c1ccc(O)c(O)c1O [MIM1] + COc1cc2c(Oc3ccc(NC(=O)C4(C(=O)Nc5ccc(F)cc5)CC4)cc3F)ccnc2cc1OCCCN1CCOCC1 [Foretinib] (partner 0.25 µM)",
    "ASSIGNED_CLASS": "t"
  },
  {
    "COMPOUND": "CN1CCN(CCOc2cc(OC3CCOCC3)c3c(Nc4c(Cl)ccc5c4OCO5)ncnc3c2)CC1 [Saracatinib] + CC(=O)Nc1cccc(-n2c(=O)n(C3CC3)c(=O)c3c(Nc4ccc(I)cc4F)n(C)c(=O)c(C)c32)c1 [Trametinib] (partner 0.02 µM)",
    "ASSIGNED_CLASS": "t"
  }
]

*Q* Quick check: relative viability of Cc1csc(=NC2CCCCC2)n1/N=C/c1ccc(O)c(O)c1O [MIM1] + Cc1cc(Nc2cc(N3CCN(C)CC3)nc(Sc3ccc(NC(=O)C4CC4)cc3)n2)n[nH]1 [Tozasertib] (partner 0.1 µM) under 0.6?
*A* t

*Q* Quick check: relative viability of CN1CCN(CCOc2cc(OC3CCOCC3)c3c(Nc4c(Cl)ccc5c4OCO5)ncnc3c2)CC1 [Saracatinib] + O=C(CCCCCCC(=O)Nc1ccccc1)NO [Vorinostat] (partner 1 µM) under 0.6?
*A* f

*Q* Quick check: relative viability of Cc1csc(=NC2CCCCC2)n1/N=C/c1ccc(O)c(O)c1O [MIM1] + COc1cccc2cc(-c3nc([C@H]4CC[C@H](C(=O)O)CC4)n4ncnc(N)c34)[nH]c12 [OSI-027] (partner 0.5 µM) under 0.6?
*A* f

*Q* Quick check: relative viability of Cc1csc(=NC2CCCCC2)n1/N=C/c1ccc(O)c(O)c1O [MIM1] + Nc1ncn([C@H]2C[C@H](O)[C@@H](CO)O2)c(=O)n1 [Decitabine] (partner 2 µM) under 0.6?
*A* t

*Q* Quick check: relative viability of Cc1csc(=NC2CCCCC2)n1/N=C/c1ccc(O)c(O)c1O [MIM1] + CC(=O)c1c(C)c2cnc(Nc3ccc(N4CCNCC4)cn3)nc2n(C2CCCC2)c1=O [Palbociclib] (partner 0.5 µM) under 0.6?
*A* t

----------
We begin with a simple list: items and their reported relative viability.
# System: NCI-H838
# ASSAY_SUMMARY: relative viability (nuclei count vs DMSO), 5 days (fraction); higher = more cells survive
# MEASUREMENT_SETUP: first compound 0.03162 µM

[
  {
    "COMPOUND": "Cc1cn(-c2cc(NC(=O)c3ccc(C)c(Nc4nccc(-c5cccnc5)n4)c3)cc(C(F)(F)F)c2)cn1 [Nilotinib] + CC(=O)Nc1cccc(-n2c(=O)n(C3CC3)c(=O)c3c(Nc4ccc(I)cc4F)n(C)c(=O)c(C)c32)c1 [Trametinib] (partner 0.02 µM)",
    "TGT": "NCI-H838",
    "relative viability": 0.339
  },
  {
    "COMPOUND": "Cc1cn(-c2cc(NC(=O)c3ccc(C)c(Nc4nccc(-c5cccnc5)n4)c3)cc(C(F)(F)F)c2)cn1 [Nilotinib] + NC(=O)Nc1cc(-c2cccc(F)c2)sc1C(=O)N[C@H]1CCCNC1 [AZD7762] (partner 0.2 µM)",
    "TGT": "NCI-H838",
    "relative viability": 0.9
  },
  {
    "COMPOUND": "Cc1cn(-c2cc(NC(=O)c3ccc(C)c(Nc4nccc(-c5cccnc5)n4)c3)cc(C(F)(F)F)c2)cn1 [Nilotinib] + C[C@]1(O)C[C@@H](c2nc(-c3ccc4ccc(-c5ccccc5)nc4c3)c3c(N)nccn32)C1 [Linsitinib] (partner 1 µM)",
    "TGT": "NCI-H838",
    "relative viability": 0.967
  },
  {
    "COMPOUND": "Cc1cn(-c2cc(NC(=O)c3ccc(C)c(Nc4nccc(-c5cccnc5)n4)c3)cc(C(F)(F)F)c2)cn1 [Nilotinib] + CC(=O)c1c(C)c2cnc(Nc3ccc(N4CCNCC4)cn3)nc2n(C2CCCC2)c1=O [Palbociclib] (partner 0.5 µM)",
    "TGT": "NCI-H838",
    "relative viability": 0.198
  },
  {
    "COMPOUND": "Cc1cn(-c2cc(NC(=O)c3ccc(C)c(Nc4nccc(-c5cccnc5)n4)c3)cc(C(F)(F)F)c2)cn1 [Nilotinib] + O=C(CCCCCCC(=O)Nc1ccccc1)NO [Vorinostat] (partner 1 µM)",
    "TGT": "NCI-H838",
    "relative viability": 0.726
  }
]

Here is the next item to consider.
*Q* Answer with the recorded relative viability for the compound listed here: Cc1cn(-c2cc(NC(=O)c3ccc(C)c(Nc4nccc(-c5cccnc5)n4)c3)cc(C(F)(F)F)c2)cn1 [Nilotinib] + COc1cc2c(Oc3ccc(NC(=O)C4(C(=O)Nc5ccc(F)cc5)CC4)cc3F)ccnc2cc1OCCCN1CCOCC1 [Foretinib] (partner 0.25 µM)
*A* 0.91
